Reported values of melting point for individual entries

O=C(O)C1=Cc2cc(-c3ccc(OC(F)(F)F)cc3)ccc2S(=O)(=O)CC1    284 to 285 °C
CCn1cc(C(=O)O)c(=O)c2cc(F)c(-c3csc(CNC)n3)c(OC)c21    164 to 166 °C
CSC(N)=C(CCN1CCC(c2noc3cc(F)ccc23)CC1)[N+](=O)[O-]    150 to 154 °C
CCc1cccc(NC(=O)NCC(=O)N(CC(=O)N(C)c2ccccc2)c2ccccc2)c1    105 °C
CNC(=O)c1cc(C#N)cc(C)c1NC(=O)c1cc(Br)nn1-c1ccccc1Cl    242 to 243 °C
Cc1nc(C(O)(c2nc(C)c(C)s2)C(C)(C)C)sc1C    91 to 92 °C
Cc1cc(-c2c[nH]cc2C#N)c(Cl)cc1F    132 to 133 °C
CNC(=O)C(=O)CCCCCCc1cnc(-c2ccc(Br)cc2)o1    90 to 92 °C
CS(=O)(=O)c1ccc(C=Cc2cc(=O)cc(-c3ccccc3)o2)cc1    239 to 241 °C
C[Si](C)(C)Oc1ccc(SSc2ccc(O[Si](C)(C)C)cc2)cc1    21 to 22 °C

melting point in this record for CCCCCCCC/C=C\CCCCCCCC(=O)NCCNC(=O)CCNC(=O)C1OC(C)(C)OCC1(C)C (stereo unspecified) : 110 to 112 °C

melting point in this record for "CNc1nc(-c2cccc3ccccc23)co1" : 164 to 166 °C

melting point in this record for "CN(C)C(=O)Nc1cccc(C(=O)c2ccccc2)c1" : 104 to 105 °C

melting point in this record for "CCOC(=O)c1c2ccc(Cl)cc2c(-c2ccccc2)n1CCN" : 84 to 86 °C

melting point in this record for "CC(=O)Oc1ccccc1C1CCC(=O)CC1" : 86 to 87 °C
